- targetOrSystem: 5-hydroxytryptamine receptor 2A (Homo sapiens) (UniProt P28223)
- Sequence (P28223 whole entry, looked up): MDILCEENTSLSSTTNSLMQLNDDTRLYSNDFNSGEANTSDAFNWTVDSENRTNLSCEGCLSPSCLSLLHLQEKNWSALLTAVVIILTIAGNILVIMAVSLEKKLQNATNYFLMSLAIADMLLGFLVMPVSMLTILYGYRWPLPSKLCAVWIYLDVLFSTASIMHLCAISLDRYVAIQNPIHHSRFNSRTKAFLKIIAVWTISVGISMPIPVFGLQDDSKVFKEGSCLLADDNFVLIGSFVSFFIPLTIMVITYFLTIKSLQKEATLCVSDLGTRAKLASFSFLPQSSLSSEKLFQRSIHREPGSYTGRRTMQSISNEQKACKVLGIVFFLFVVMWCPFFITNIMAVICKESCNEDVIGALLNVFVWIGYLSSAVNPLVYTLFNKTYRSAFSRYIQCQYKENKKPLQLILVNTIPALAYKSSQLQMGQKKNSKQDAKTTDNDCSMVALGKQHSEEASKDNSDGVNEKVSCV
- methodNotes: 5-hydroxytryptamine receptor 2A (HTR2A) small molecule antagonists, cell-based qHTS assay (AID 1963586); further: nearly all actives have a fitted effect of over 45% in size
- setupConditions: HTR2A-CHO cells, DOI-induced calcium flux, fluorescence; series mostly up to 61.5 µM
- Description: National Center for Advancing Translational Sciences [NCATS] Division of Preclinical Innovation [DPI] U.S. Environmental Protection Agency [EPA] National Institutes of Environmental Health Sciences [NIEHS] National Toxicology Program [NTP] […] HTR2A-CHO cells were dispensed at 2000 cells/3uL/well in 1536-well black-clear bottom plates using a Multidrop Dispenser. […] The fluorescence intensity in the plates was measured using FDSS 7000EX kinetic plate reader for 3 min at 1 sec intervals.
Results filed as inconclusive are left out. Active and inactive are the calls of the source. The call rests on the fitted dose curve.
Allowed answers: Yes = active, No = inactive

Per the records of this test, what outcome belongs to `NNc1nc(-c2ccc(N)cc2)cs1` ?
No

Test call for this compound, please: `CN(C)CCN(Cc1ccccc1)c1ccccn1`
Yes

Recorded test call requested for `CC1=C(C=O)C(C)(C)CCC1`
No

Look up the recorded call for `CCOC(C)OCC` in this test.
No

Name the outcome recorded for CC(C)CCCCCCOC(=O)C1CCCCC1C(=O)OCCCCCCC(C)C (stereo not drawn) in the assay.
No

Per the assay record, what outcome was assigned to `C=CCCCCCCC=C` ?
No

I'd appreciate the recorded outcome for `CCCCc1cc2ccccc2c(OCCN(C)C)n1` from this test.
No

Hi, sorry to bother you, what did the test record for `Cc1oc(-c2ccccc2)nc1CCOc1cccc2c1ccn2CCC(=O)O` ?
No

Fill in: this test's call for `O=C(O)Cc1ccc(Cl)cc1Cl` is ___
No

Tell me the assay call for `O=[N+]([O-])c1cc(N(CCO)CCO)ccc1NCCO` please.
No

Returns: the outcome recorded for CCCCCCCCCCCC(=O)OCC(O)CO (stereo not drawn) in this assay.
No

Returns: the outcome recorded for `CCN(Cc1cccc(S(=O)(=O)O)c1)c1ccc(C(=C2C=CC(=[N+](CC)Cc3cccc(S(=O)(=O)[O-])c3)C=C2)c2ccccc2)cc1` in this assay.
No

Query: recorded result category for `CC(=O)[O][Al]` in this test
No

====

- methodNotes: G protein-coupled receptor (GPCR) small molecule agonists, calcium flux assay: HEK293 wild type cell line counter screen (AID 1920065); further: on the % scale 0 is the no-effect control and ±100 the full control effect
- setupConditions: HEK293 WT calcium flux, fluorescence, agonist mode; series mostly up to 57.6 µM
Calls of active or inactive are those of the source. Calls follow the shape of the full dose curve.
measurementKind: activation

# count of solved cases: 6
> print(dat)
                                   compound  measurementkind  assayresult
1                 COc1ccc(NC(=O)CC(C)=O)cc1       activation     inactive
2                 Nc1nc2ccc(OC(F)(F)F)cc2s1       activation     inactive
3  OCCN1CCN(CC/C=C2/c3ccccc3Sc3ccc(C(F)(F)F)cc32)CC1       activation     inactive
4  C=CC(C)(CCC=C(C)C)OC(=O)/C=C/c1ccccc1 (stereo not drawn)       activation     inactive
5                          CCCC/C=C/C=C\C=O       activation     inactive
6        CCc1ccc(C(c2ccc(CC)cc2)C(Cl)Cl)cc1       activation     inactive

Any idea what activation was measured for `N[C@@H](CCC(=O)N[C@@H](CS)C(=O)NCC(=O)O)C(=O)O` ?
-1.3% [at 11.8 µM] (inactive)

So what does the record say about activation for `C=CC(=O)[O-].C=CC(=O)[O-].[Zn+2]` ?
inactive

May I ask what activation has been recorded for `C=CCOC(=O)CCC1CCCCC1` ?
inactive

Which activation reading was recorded for the compound `NCCNC(=O)c1ccc(Cl)cn1` ?
inactive

What does the record list as activation for `CC(C)C(C)C` ?
inactive

====

- targetOrSystem: Muscarinic acetylcholine receptor M1 (Homo sapiens) (UniProt P11229)
- Sequence (P11229 whole entry, looked up): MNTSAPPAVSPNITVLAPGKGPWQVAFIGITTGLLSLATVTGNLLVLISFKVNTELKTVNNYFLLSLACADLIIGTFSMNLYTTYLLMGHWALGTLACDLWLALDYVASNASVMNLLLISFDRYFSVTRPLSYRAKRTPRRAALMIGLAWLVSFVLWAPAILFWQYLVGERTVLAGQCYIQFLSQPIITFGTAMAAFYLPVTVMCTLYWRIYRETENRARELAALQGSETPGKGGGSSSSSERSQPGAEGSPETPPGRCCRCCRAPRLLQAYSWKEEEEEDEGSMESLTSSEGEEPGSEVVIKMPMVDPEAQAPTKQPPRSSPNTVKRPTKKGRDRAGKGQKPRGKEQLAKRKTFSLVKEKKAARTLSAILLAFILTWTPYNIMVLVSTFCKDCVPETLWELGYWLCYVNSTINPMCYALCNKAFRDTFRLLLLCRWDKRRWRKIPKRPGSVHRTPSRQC
- methodNotes: Cholinergic receptor muscarinic 1 (CHRM1) small molecule agonists, cell-based qHTS assay (AID 1963589); further: on the % scale 0 is the no-effect control and ±100 the full control effect; nearly all actives have a fitted effect of over 35% in size
- setupConditions: CHRM1-CHO cells, agonist mode, calcium flux fluorescence; series mostly up to 76.8 µM
The source made the active and inactive calls. The call rests on the fitted dose curve.
measurementKind: activation

Example entries and their recorded answers appear below.
> print(dat)
                                   molecule  measurementkind  assayresult
1         COc1ccc(/C=N/NC(=O)c2ccncc2)cc1OC       activation     inactive
2      O=c1cc(-c2ccc(O)cc2)oc2cc(O)cc(O)c12       activation     inactive
3                                 Cc1ccccc1       activation     inactive
4  CCOc1ccccc1OCCN[C@H](C)Cc1ccc(OC)c(S(N)(=O)=O)c1       activation     inactive
5  C[C@]12C(=O)OC(=O)[C@H]1[C@H]1C=C[C@@H]2C1       activation     inactive
6                        Nc1ccccc1Nc1ccccc1       activation     inactive
7       Cc1ccc(S(=O)(=O)NC(=O)NC2CCCCC2)cc1       activation     inactive
8          COc1ccc(C(=O)/C(Br)=C\C(=O)O)cc1       activation     inactive

Tell me reported activation for `Cn1ccc2cc3c(cc21)CCN3C(=O)Nc1cccnc1` , tested with Muscarinic acetylcholine receptor M1 (Homo sapiens) (UniProt P11229).
-0.375% [at 15.8 µM] (inactive)

Lab note: need activation for `Nc1ncn([C@H]2C[C@H](O)[C@@H](CO)O2)c(=O)n1` on Muscarinic acetylcholine receptor M1 (Homo sapiens) (UniProt P11229), anyone have it?
inactive

Form: Entry = `CCCCCCCCS(=O)(=O)O` | System = Muscarinic acetylcholine receptor M1 (Homo sapiens) (UniProt P11229) | activation = ____
inactive

Form field - read-out: activation; system: Muscarinic acetylcholine receptor M1 (Homo sapiens) (UniProt P11229); submitted item: `COc1cc(OC)c2ccc(=O)oc2c1`
inactive

Provide the documented activation with Muscarinic acetylcholine receptor M1 (Homo sapiens) (UniProt P11229) as the system for `C=C[Si](OCC)(OCC)OCC`
inactive

====

- targetOrSystem: Muscarinic acetylcholine receptor M1 (Homo sapiens) (UniProt P11229)
- methodNotes: Cholinergic receptor muscarinic 1 (CHRM1) small molecule antagonists, cell-based qHTS assay (AID 1963588); further: nearly all actives have a fitted effect of over 40% in size
- setupConditions: CHRM1-CHO antagonist mode, calcium flux fluorescence; series mostly up to 61.5 µM
Results filed as inconclusive are left out. Calls of active or inactive are those of the source. Calls follow the shape of the full dose curve.
The categories you may choose from are active, inactive

Take a look at these entries with their results.
> print(dat)
               molecule  assignedlabel
1                 CCCCO       inactive
2  CCOc1ccc(NC(N)=O)cc1       inactive
3        C=CC(=O)OCCC#N       inactive

Dear all, I need the recorded test outcome for `CCOC(=O)NCCOc1ccc(Oc2ccccc2)cc1` , thank you.
active

Which result was noted for this molecule in the test: CCCCCCC(C)Nc1ccc(Nc2ccccc2)cc1 (configuration not stated)
inactive

Could you please tell me the result logged for `O=[N+]([O-])c1ccc(Nc2ccc(Nc3ccccc3)c(S(=O)(=O)O)c2)c([N+](=O)[O-])c1` in this assay?
inactive

Could you check what this test reported for `CCCCCCCCCCCCCBr` ?
inactive

====

- targetOrSystem: D(2) dopamine receptor (Homo sapiens) (UniProt P14416)
- Sequence (P14416 whole entry, looked up): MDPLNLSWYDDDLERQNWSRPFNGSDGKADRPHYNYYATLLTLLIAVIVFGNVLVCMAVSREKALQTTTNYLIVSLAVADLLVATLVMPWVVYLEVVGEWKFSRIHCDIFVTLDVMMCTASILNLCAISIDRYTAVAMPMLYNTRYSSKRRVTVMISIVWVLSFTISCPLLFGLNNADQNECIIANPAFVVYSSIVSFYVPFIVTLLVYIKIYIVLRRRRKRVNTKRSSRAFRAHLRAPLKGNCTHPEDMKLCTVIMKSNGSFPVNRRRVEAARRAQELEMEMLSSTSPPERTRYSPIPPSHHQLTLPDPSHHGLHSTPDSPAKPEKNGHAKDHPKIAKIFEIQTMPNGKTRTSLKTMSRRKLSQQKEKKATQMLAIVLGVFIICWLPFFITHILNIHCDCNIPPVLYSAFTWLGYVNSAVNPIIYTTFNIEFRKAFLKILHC
- methodNotes: Dopamine D2 receptor (DRD2) small molecule antagonists, cell-based qHTS assay (AID 1963595)
- setupConditions: HEK293-DRD2 cAMP HTRF antagonist mode; series mostly up to 92.4 µM
Results filed as inconclusive are left out. Active and inactive are the calls of the source. Calls come from the whole dose curve; as a rule, active = well fitted inhibition curve with a large enough effect in the signal ratio in the repeat runs, with a control signal flat; inconclusive = weak or mixed curves, or effect the other way; inactive = flat fitted curve, though single readings scatter; the % refers to the signal ratio.
Respond only with the outcome that fits, drawn from label 1 (active), label 0 (inactive)

Worked examples, 5 molecules total:
molecule	targetOrSystem	assignedLabel
OCCN1CCN(CCCN2c3ccccc3Sc3ccc(Cl)cc32)CC1	D(2) dopamine receptor (Homo sapiens) (UniProt P14416)	label 1
CCN(CC)CCCN(c1ccccc1)C1Cc2ccccc2C1	D(2) dopamine receptor (Homo sapiens) (UniProt P14416)	label 0
C[C@@H]1C[C@H]2[C@@H]3C[C@H](F)C4=CC(=O)C(Cl)=C[C@]4(C)[C@@]3(F)[C@@H](O)C[C@]2(C)[C@@]1(O)C(=O)CO	D(2) dopamine receptor (Homo sapiens) (UniProt P14416)	label 0
CC(C)(C)c1ccc(C(=O)CCCN2CCC(OC(c3ccccc3)c3ccccc3)CC2)cc1	D(2) dopamine receptor (Homo sapiens) (UniProt P14416)	label 0
CN1[C@@H]2CC[C@@H]1CC(OC(=O)C(CO)c1ccccc1)C2 (stereo partly drawn)	D(2) dopamine receptor (Homo sapiens) (UniProt P14416)	label 0

# lookup: test call for CCC(C)COC(C)=O (stereo not drawn)
label 0

// param item: `CC(C)CCCCCOC(=O)CCCCC(=O)OCCCCCC(C)C` ; yields the recorded call
label 0

Hi team, can someone confirm the assay call for `C[C@H](CS)C(=O)N1CCC[C@H]1C(=O)O` ?
label 0

Answer briefly: the call reported for COC(=O)C1=C(C)NC(COC(N)=O)=C(C(=O)OC(C)C)C1c1cccc(Cl)c1Cl (stereo not drawn) in this assay.
label 0

Entry `CCCCCCCC/C=C/CCCOC(C)=O` : call = ?
label 0

# fetch the recorded call for `CCc1cc(C2=C(C(=O)O)N(c3ccccc3C(F)(F)F)S(=O)(=O)c3ccccc32)cc2c1OCO2` here
label 0

Any idea what this test logged for `C[C@@H](O)[C@H]1C(=O)N2C(C(=O)O)=C(S[C@@H]3CN[C@H](CNS(N)(=O)=O)C3)[C@H](C)[C@H]12` ?
label 0

Which outcome was entered for the molecule `C[C@@H](O[C@H]1OCCN(Cc2n[nH]c(=O)[nH]2)[C@H]1c1ccc(F)cc1)c1cc(C(F)(F)F)cc(C(F)(F)F)c1` in this test?
label 0

Record request — test call for `C=C(C)C(=O)OCCOCCOCCOCCOC(=O)C(=C)C`
label 0

State the result this test recorded for `Cc1cccc2c1cc1ccc3cccc4ccc2c1c34` .
label 0

Numbers sourced from PubChem BioAssay (Tox21).
